Value source: ChEMBL document CHEMBL1154657

// reported GI50 per item
Test: Growth inhibition of human HeLaS3 cells
Type: functional
Conditions: HeLa S3
quantity_name: GI50 (nM)

{"structure_smiles_string": "CC(C)n1cnc2c(NCc3ccc(-c4ccccc4)nc3)nc(N[C@H]3CC[C@H](N)CC3)nc21", "experimental_result": 71}
{"structure_smiles_string": "CC(C)n1cnc2c(NCc3ccc(-c4cccnc4)s3)nc(N[C@H]3CC[C@H](N)CC3)nc21", "experimental_result": 200}
{"structure_smiles_string": "CC(C)n1cnc2c(NCc3cnc(-c4ccccc4)s3)nc(N[C@H]3CC[C@H](N)CC3)nc21", "experimental_result": 200}
{"structure_smiles_string": "CC(C)n1cnc2c(NCc3ccc(-c4ccoc4)s3)nc(N[C@H]3CC[C@H](N)CC3)nc21", "experimental_result": 2000}
{"structure_smiles_string": "CC(C)n1cnc2c(NCc3ccc(-n4cccc4)cc3)nc(N[C@H]3CC[C@H](N)CC3)nc21", "experimental_result": 20}
{"structure_smiles_string": "CC(C)n1cnc2c(NCc3ccc(-c4ccccn4)s3)nc(N[C@H]3CC[C@H](N)CC3)nc21", "experimental_result": 270}
{"structure_smiles_string": "CC(C)n1cnc2c(NCc3ccc(-c4cccs4)nc3)nc(N[C@H]3CC[C@H](N)CC3)nc21", "experimental_result": 98}
{"structure_smiles_string": "CC(C)n1cnc2c(NCc3ccc(-c4cccnc4)cc3)nc(N[C@H]3CC[C@H](N)CC3)nc21", "experimental_result": 140}
{"structure_smiles_string": "CC(C)n1cnc2c(NCc3ccc(-c4ccsc4)nc3)nc(N[C@H]3CC[C@H](N)CC3)nc21", "experimental_result": 27}
